Tested on: COLO 205 colon
Protocol details: NCI tumour cell line growth inhibition, 48 h
Provide the recorded TGI for the entries that follow.
Write the value in µM as a bare number.

**Query** Sample C=C1C(=O)O[C@H]2[C@H]1CC/C(COC(=O)NCc1ccc(Cn3c(=O)sn(CCCCC)c3=O)cc1)=C\CC[C@@]1(C)O[C@@H]21 — what was its TGI?
**Result** 3.33

**Query** Sample COc1cc(C2c3cc4c(cc3OC(NNS(=O)(=O)c3ccc(C)cc3)C2C)OCO4)cc(OC)c1OC (centres undefined) — what was its TGI?
**Result** 16.8

**Query** Sample C=C1C(=O)O[C@H]2[C@H]1CC/C(Cn1cc(-c3ccc(N)cc3)nn1)=C\CC[C@@]1(C)O[C@@H]21 — what was its TGI?
**Result** 4.05

###

Test system: SK-MEL-28 melanoma
Protocol details: NCI tumour cell line growth inhibition, 48 h
Measured quantity: TGI

**Query** Sample COc1ccc(/C=C2/C(=O)N(C(=O)c3ccccc3O)N=C2C)cc1 — what was its TGI?
**Result** > 100 µM

**Query** Sample O=C(O)c1nc2ccc(C(F)(F)F)cc2nc1Nc1ccc(Cl)c(Cl)c1 — what was its TGI?
**Result** 26.6 µM

**Query** Sample COc1cc([C@@H]2c3cc4c(cc3[C@H](OC(C)=O)[C@H]3COC(=O)[C@@H]23)OCO4)cc(OC)c1OC — what was its TGI?
**Result** > 100 µM

**Query** Sample CCOC(=O)c1sc2c(c1OC(=O)c1cc(OC)c(OC)c(OC)c1)c(=O)n(-c1ccccc1)c(=S)n2-c1ccccc1 — what was its TGI?
**Result** > 100 µM

**Query** Sample CC1(C)CO[P@@](=S)(c2ccccn2)O[C@@H]1c1ccccc1 — what was its TGI?
**Result** > 100 µM

**Query** Sample COc1ccc2c(O)c(S(=O)(=O)c3ccc(C)cc3)c(=O)oc2c1OC — what was its TGI?
**Result** > 100 µM

**Query** Sample COc1ccc(/C=C2\C[C@H]3[C@@H]4CCC5=C/C(=N/O)CC[C@]5(C)[C@H]4CC[C@]3(C)\C2=N\O)cc1 — what was its TGI?
**Result** > 100 µM

**Query** Sample C/C(=C(/c1ccccc1)c1ccc(OCC(O)CNCCN2CCOCC2)cc1)c1ccccc1 (centres undefined) — what was its TGI?
**Result** 3.25 µM

**Query** Sample COc1ccc2c(c1)CN([C@@H](C)[C@H]1CC[C@H]3[C@@H]4CC[C@H]5C[C@@H](O)CC[C@]5(C)[C@H]4CC[C@]13C)CO2 — what was its TGI?
**Result** 5.98 µM

**Query** Sample C[C@H]1C2Cc3cc(O)ccc3[C@@]1(C)CCN2CCc1ccc(N)cc1 — what was its TGI?
**Result** 34.4 µM

**Query** Sample O=C1C[C@@]23CCC4(CC2CCC[C@H]3O1)OCCO4 (some centres undefined) — what was its TGI?
**Result** > 100 µM

**Query** Sample Clc1ccccc1CN1COc2c(ccc3cccnc23)C1 — what was its TGI?
**Result** 14.9 µM

**Query** Sample COc1ccc(C2=NC(=O)NC2c2ccc(OC)cc2)cc1 (centres undefined) — what was its TGI?
**Result** > 100 µM

**Query** Sample O=c1[nH]c(SCc2cccc([N+](=O)[O-])c2)nc2nc[nH]c12 — what was its TGI?
**Result** > 100 µM

**Query** Sample CC(=O)C(C)C(=O)N1C(=O)N(C)C2(C)N(C)C(=O)NC12C (centres undefined) — what was its TGI?
**Result** > 100 µM

**Query** Sample Clc1ccc(/C=C/c2ccc3ccccc3n2)cc1 — what was its TGI?
**Result** > 100 µM

**Query** Sample c1ccc2cc3c(NC4=NCCO4)cccc3cc2c1 — what was its TGI?
**Result** > 100 µM

**Query** Sample CCCc1nc(Cl)nc(Cl)c1Cl — what was its TGI?
**Result** 2.05 µM

**Query** Sample COc1cccc(-c2cc(=O)c3cc4c(cc3[nH]2)OCO4)c1 — what was its TGI?
**Result** > 100 µM

**Query** Sample OC1=CN=COc2ccccc21 — what was its TGI?
**Result** > 100 µM

**Query** Sample N=c1c2ccccc2sc2nc3ccccc3n12 — what was its TGI?
**Result** > 100 µM

**Query** Sample CC(Oc1ccc(Oc2cnc3ccc(Cl)cc3n2)cc1)C(=O)O (centres undefined) — what was its TGI?
**Result** > 100 µM

**Query** Sample FC(F)(F)c1ccc2c(c1)nc1n2C(c2c(Cl)cccc2Cl)SC1 (centres undefined) — what was its TGI?
**Result** 43.3 µM

**Query** Sample Nc1nc(N)c2cc(Sc3ccc4ccccc4c3)ccc2n1 — what was its TGI?
**Result** 2.9 µM

**Query** Sample C1CCCCC2(CCCCCCCCC3(CCC1)SCCS3)SCCS2 — what was its TGI?
**Result** > 100 µM

**Query** Sample O=Cc1ccc(OC[C@H]2COC(=O)N2)cc1 — what was its TGI?
**Result** > 100 µM

**Query** Sample CCCCCCCCCc1ccc(OCCOCCOCCOCCOCCOCCOCCOCCOCCO)cc1 — what was its TGI?
**Result** 2.02 µM

**Query** Sample FC(F)(F)c1ccc(-c2nn3ncccc3c2-c2ccnc(Nc3ccc4c(c3)OCCO4)n2)cc1 — what was its TGI?
**Result** > 25 µM

**Query** Sample CC1CC2(S(=O)(=O)c3ccccc3)ON1CC2S(=O)(=O)c1ccccc1 (centres undefined) — what was its TGI?
**Result** > 100 µM

###

System: NCI-H522 lung
Protocol details: NCI tumour cell line growth inhibition, 48 h
Classify by measured TGI: 1.0 if it is equal to or exceeds 5 µM, 0.0 if it is smaller.

**Query** Hi team, for CC(C)(C)OC(=O)N1NC(c2ccccc2)CC1c1ccccc1 (stereo not drawn) , is the recorded TGI at or above 5 µM?
**Result** 1.0

**Query** Hi team, for CC1=Nc2ccccc2SC(c2c(Cl)cccc2Cl)C1 (stereo not drawn) , is the recorded TGI at or above 5 µM?
**Result** 0.0

**Query** Hi team, for C/C(=N\NC(=O)c1ccc(Cl)cc1)c1nc2ncccc2[nH]1 , is the recorded TGI at or above 5 µM?
**Result** 1.0

**Query** Hi team, for CCOP(=O)(OCC)/C(C#N)=C/c1ccccn1 , is the recorded TGI at or above 5 µM?
**Result** 1.0

**Query** Hi team, for O=C(NN1C(=O)CSC1c1cccc(Cl)c1)C(O)c1ccccc1 (stereo not drawn) , is the recorded TGI at or above 5 µM?
**Result** 1.0

**Query** Hi team, for Cc1ccc(S(=O)C[C@](NC(=O)OCc2ccccc2)(Sc2ccccc2)C(F)F)cc1 (stereo partly drawn) , is the recorded TGI at or above 5 µM?
**Result** 1.0

**Query** Hi team, for COc1cc(C(=O)Oc2c(C(C)=O)sc3c2c(=O)n(-c2ccccc2)c(=S)n3-c2ccccc2)cc(OC)c1OC , is the recorded TGI at or above 5 µM?
**Result** 0.0

**Query** Hi team, for Nc1nc(N)c2cc(Sc3ccc4ccccc4c3)ccc2n1 , is the recorded TGI at or above 5 µM?
**Result** 0.0

###

Provide the recorded TGI for the entries that follow.
System: UACC-62 melanoma
Protocol details: NCI tumour cell line growth inhibition, 48 h
Write the value in µM as a bare number.

**Query** Sample C=C(CN1CCc2c([nH]c3ccccc23)C1)c1ccc(C(=O)Nc2ccccc2N)cc1 — what was its TGI?
**Result** 7.43

**Query** Sample O=C1C(CO)=C[C@H](O)[C@H]2O[C@@H]12 — what was its TGI?
**Result** 215

**Query** Sample FC(F)(F)c1ccc2c(c1)nc1n2C(c2c(Cl)cccc2Cl)SC1 (centres undefined) — what was its TGI?
**Result** 34.1

**Query** Sample N#[N+]c1c([O-])c2ccccc2c2ccccc12 — what was its TGI?
**Result** 69.7

###

Provide the recorded TGI for the entries that follow.
Test system: MCF7 breast
Protocol details: NCI tumour cell line growth inhibition, 48 h
Write the value in µM as a bare number.

**Query** Sample CCCCCCNCCCNc1c2cc(OC)ccc2nc2cccc([N+](=O)[O-])c12 — what was its TGI?
**Result** 0.398

**Query** Sample O=C(O)c1nc2ccc(C(F)(F)F)cc2nc1Nc1ccc(Cl)c(Cl)c1 — what was its TGI?
**Result** 66.7

**Query** Sample C[C@@H](C[C@H]1OC(C)(C)O[C@@H]1C(C)(C)O)[C@H]1CC=C2[C@]3(C)[C@H](O)C[C@H]4C(C)(C)[C@H](O)CC[C@]4(C)[C@H]3CC[C@]21C — what was its TGI?
**Result** 12.8

**Query** Sample CC(C)(C)NCC(O)COc1c(Br)c(Br)c(Br)c2c1OC(C)(C)C2 (stereo not given) — what was its TGI?
**Result** 3.24
